tested on: 885724-159-R-J1-PDC complex spheroid viability; test: Anticancer human tumor 885724-159-R-J1-PDC patient-derived pancreatic adenocarcinoma cell line growth inhibition [POLQ]; details: second compound 0.0316 µM; first compound 0.316 µM; active compounds read low;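 note: spheroids exposed to compounds for 7 days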
experimental endpoint: viability, T/C

Below, 3 compounds whose answers are already recorded.
C#Cc1c(F)ccc2cc(O)cc(-c3ncc4c(N5CC6CCC(C5)N6)nc(OCC56CCCN5CC(F)C6)nc4c3F)c12 (stereo not given) + COC1C(OC(N)=O)C(O)C(Oc2ccc3c(O)c(NC(=O)c4ccc(O)c(CC=C(C)C)c4)c(=O)oc3c2C)OC1(C)C ... 88.5%
COc1cc(C2c3cc4c(cc3C(OC3OC5COC(C)OC5C(O)C3O)C3COC(=O)C23)OCO4)cc(OC)c1O (stereo not given) + COC1C(OC(N)=O)C(O)C(Oc2ccc3c(O)c(NC(=O)c4ccc(O)c(CC=C(C)C)c4)c(=O)oc3c2C)OC1(C)C ... 67.8%
C=CC(=O)N1CCN(c2nc(=O)n(-c3c(C)ccnc3C(C)C)c3nc(-c4c(O)cccc4F)c(F)cc23)C(C)C1 (stereo not given) + COC1C(OC(N)=O)C(O)C(Oc2ccc3c(O)c(NC(=O)c4ccc(O)c(CC=C(C)C)c4)c(=O)oc3c2C)OC1(C)C ... 110%

INPUT: Given the entry O=C(c1cc(Cc2n[nH]c(=O)c3ccccc23)ccc1F)N1CCN(C(=O)C2CC2)CC1 + COC1C(OC(N)=O)C(O)C(Oc2ccc3c(O)c(NC(=O)c4ccc(O)c(CC=C(C)C)c4)c(=O)oc3c2C)OC1(C)C , what viability, T/C was observed with 885724-159-R-J1-PDC complex spheroid viability?
OUTPUT: 91.4%

INPUT: What about COc1cccc2c1C(=O)c1c(O)c3c(c(O)c1C2=O)CC(O)(C(=O)CO)CC3OC1CC(N)C(O)C(C)O1 (stereo not given) + COC1C(OC(N)=O)C(O)C(Oc2ccc3c(O)c(NC(=O)c4ccc(O)c(CC=C(C)C)c4)c(=O)oc3c2C)OC1(C)C ?
OUTPUT: 31.9%

INPUT: // same read-out, input: COc1cccc2c1C(=O)c1c(O)c3c(c(O)c1C2=O)CC(O)(C(=O)CO)CC3OC1CC(N)C(O)C(C)O1 (stereo not given) + Cc1cccc(N(C)C(=O)C2C(O)CCN2c2nc(C)cc(C(F)(F)F)c2C#N)c1
OUTPUT: 32.5%

INPUT: One more compound: O=C(c1cc(Cc2n[nH]c(=O)c3ccccc23)ccc1F)N1CCN(C(=O)C2CC2)CC1 + Cc1cccc(N(C)C(=O)C2C(O)CCN2c2nc(C)cc(C(F)(F)F)c2C#N)c1
OUTPUT: 97.2%

INPUT: Same lookup for Nc1ccn(C2OC(CO)C(O)C2(F)F)c(=O)n1 (stereo not given) + Nc1ccc(C#CCN(C(=O)Cc2ncc(C(F)(F)F)cc2C(F)(F)F)c2ccc(F)cc2)nn1 , please.
OUTPUT: 47%

INPUT: Now consider C#Cc1c(F)ccc2cc(O)cc(-c3ncc4c(N5CC6CCC(C5)N6)nc(OCC56CCCN5CC(F)C6)nc4c3F)c12 (stereo not given) + Nc1ccc(C#CCN(C(=O)Cc2ncc(C(F)(F)F)cc2C(F)(F)F)c2ccc(F)cc2)nn1 .
OUTPUT: 90.7%

INPUT: Same question for COc1cc(C2c3cc4c(cc3C(OC3OC5COC(C)OC5C(O)C3O)C3COC(=O)C23)OCO4)cc(OC)c1O (stereo not given) + Nc1ccc(C#CCN(C(=O)Cc2ncc(C(F)(F)F)cc2C(F)(F)F)c2ccc(F)cc2)nn1 please.
OUTPUT: 87.4%
